Origin of values: patent US8658639B2

- assayed system: Recombinant human renin (Homo sapiens, UniProt P00797)
- Sequence (P00797 67-406): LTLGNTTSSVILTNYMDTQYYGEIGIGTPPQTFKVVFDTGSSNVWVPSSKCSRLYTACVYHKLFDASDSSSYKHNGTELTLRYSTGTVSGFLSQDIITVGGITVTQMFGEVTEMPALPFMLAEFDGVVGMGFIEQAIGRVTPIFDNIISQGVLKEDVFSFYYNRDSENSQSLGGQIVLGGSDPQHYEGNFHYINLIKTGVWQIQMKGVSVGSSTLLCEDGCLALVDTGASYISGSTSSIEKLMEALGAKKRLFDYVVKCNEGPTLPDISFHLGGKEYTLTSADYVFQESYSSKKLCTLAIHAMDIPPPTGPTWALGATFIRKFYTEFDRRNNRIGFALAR
- experiment notes: In vitro renin inhibitory activity assay
- condition notes: recombinant human renin 4.2 ng/mL, substrate 4 μM, 37° C., one hour, pH 7.4
Let's look at some compounds and their measured pIC50.
Scale note: pIC50 = -log10(concentration in M).

// pIC50 lookup, key: CCC(=O)NCCN1C(=O)C2(CCC2)Oc2cc(C)c(C(=O)N(C(C)C)C3CCCN(C(=O)OC(C)OC(=O)c4ccc(C)cc4)C3)cc21 (stereo not drawn)
8.28

// pIC50 lookup, key: CCC(=O)NCCN1C(=O)C2(CCC2)Oc2cc(C)c(C(=O)N(C(C)C)C3CCCN(C(=O)OC(C)OC(=O)CCCOC)C3)cc21 (stereo not drawn)
7.68

// pIC50 lookup, key: CCC(=O)NCCN1C(=O)C2(CCC2)Oc2cc(C)c(C(=O)N(C(C)C)C3CCCN(C(=O)OC(C)OC(=O)C(F)F)C3)cc21 (stereo not drawn)
9.89
